test: IUF_NPC2c_oligodendrocyte_migration_120hr: Leibniz Research Institute for Environmental Medicine (IUF) 120-hour Neural Progenitor Cell Migration Assay for Oligodendrocyte Migration (NPC2c) (AID 2284297);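 also: O4-positive oligodendrocyte migration distance divided by radial glia migration distance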
Active and inactive are the calls of the source. The calls were made as follows: active = hit-call score of the fitted dose curve at least 0.9, where 1 is the maximum; inactive = score below 0.9.
Give your call using only these classes: T for active, F for inactive

molecule=CC(C)(C)c1ccc(CSc2cnn(C(C)(C)C)c(=O)c2Cl)cc1 class=F
molecule=CNC(=O)ON=CC(C)(C)SC class=F
molecule="CCCCC(CC)COC(=O)c1ccccc1C(=O)OCC(CC)CCCC (stereo unspecified)" class=F
molecule=Cc1ccc(-c2c(Cl)nc(C#N)n2S(=O)(=O)N(C)C)cc1 class=T
molecule=CCCCOC(=O)c1ccccc1C(=O)OCCCC class=F

Problem: GET /call?item= COP(N)(=O)SC (stereo unspecified) returns the recorded outcome of this test.
Result: F

Problem: Look up the recorded call for CO/C=C(/C(=O)OC)c1ccccc1Oc1cc(Oc2ccccc2C#N)ncn1 in this test.
Result: F

Problem: Dear all, I need the recorded test outcome for N#Cc1nn(-c2c(Cl)cc(C(F)(F)F)cc2Cl)c(N)c1S(=O)C(F)(F)F (stereo unspecified) , thank you.
Result: F

Problem: Test call for this molecule, please: CCOC(=O)CC(SP(=S)(OC)OC)C(=O)OCC (stereo unspecified)
Result: F

Problem: Could you please tell me the result logged for COC(=O)N(OC)c1ccccc1COc1ccn(-c2ccc(Cl)cc2)n1 in this assay?
Result: F

Problem: Recorded test outcome, item COP(=S)(OC)Oc1nc(Cl)c(Cl)cc1Cl
Result: F
